# Tested on: MDA-MB-435 melanoma
# test.description: NCI-60 one-dose screen, 48 h
# study.conditions: 10 µM unless noted
This is part of a sample that, as a whole, favours compounds with a hit. Of some 83,000 tested, about 20% had one in any assay. Activity calls are given as the source filed them. Rule for the calls: active = growth percent below 10; inactive = the rest.
The reply should be one of these categories: 1 (yes) (active), 0 (no) (inactive)

Below are worked cases with known answers.
molecule	assayed.target	class
COc1ccc(Cl)c(Nc2nc3ccccc3nc2NS(=O)(=O)c2cccc(NC(=O)C(C)(C)N)c2)c1	MDA-MB-435 melanoma	0 (no)
CCOc1cc2ncc(C#N)c(Nc3ccc(F)c(Cl)c3)c2cc1NC(=O)/C=C/CN(C)C	MDA-MB-435 melanoma	1 (yes)
COc1ccc(C2CC(=O)c3c(O)c(OC)c(OC)c(OC)c3O2)cc1O (stereo not given)	MDA-MB-435 melanoma	1 (yes)

Name the outcome recorded for `Cc1c(N)ccc(-c2ccc(N)c(C)c2S(=O)(=O)O)c1S(=O)(=O)O` in the assay.
0 (no)

Name the outcome recorded for `CC(=O)Nc1cccc(-n2c(=O)n(C3CC3)c(=O)c3c(Nc4ccc(I)cc4F)n(C)c(=O)c(C)c32)c1` in the assay.
0 (no)

Name the outcome recorded for `COc1ccc(-c2nc(N)ncc2Oc2ccccc2OC)c(O)c1` in the assay.
1 (yes)

Name the outcome recorded for `Cc1cc(-c2cc(OC(=O)c3ccccc3)ccc2Cl)cc2nnc(Nc3ccc(OCCN4CCCC4)cc3)nc12` in the assay.
1 (yes)

Name the outcome recorded for Nc1c2c(c(O)c3c1=C(CO)C=N3)=NCCS2=O (stereo not given) in the assay.
1 (yes)

Name the outcome recorded for `CSc1nc2ncnc(SC)c2[nH]1` in the assay.
0 (no)

Name the outcome recorded for CC1(O)CCC(Nc2cc(-c3ccc(C(F)(F)F)cc3)c(C#N)c3nc4ccccc4n23)CC1 (stereo not given) in the assay.
0 (no)

Data origin: PubChem BioAssay (NCI)
